- Test system: HEK-293T
- ASSAY PROCEDURE: Multiplex assay against HEK293T
- Format: toxicity, cell-based
- CONDITION LABEL: human, 24 h, 1 µM, compound concentration 1 uM, replicate 1
QUANTITY MEASURED: Population Mitotic Cells (%)
The answer is to be given in %; state only the numeric part.

# COMPOUND, UNIT TEXT, Population Mitotic Cells (%)
data = [
    ("CCc1cc2c(cc1CC)CC(NC[C@H](O)c1ccc(O)c3[nH]c(=O)ccc13)C2", "%", 52),
    ("CC(C)Oc1ccc(C(=O)N[C@H](CNC(=O)CN(C)C)Cc2ccc(-c3cn4cccc([C@H](C)O)c4n3)cc2)cc1Cl [GSK-923295A]", "%", 90),
    ("Cc1cc2c(cc1N1C(=O)c3cccc4c(CCCO)ccc(c34)C1=O)n(C)c(=O)n2C", "%", 49),
]

response.value for Cl.Cl.NC1(c2ccc(-c3nc4ccn5c(=O)[nH]nc5c4cc3-c3ccccc3)cc2)CCC1 (field: Population Mitotic Cells (%)) = 76

response.value for CC(C)(C)c1cnc(CSc2cnc(NC(=O)C3CCNCC3)s2)o1 (field: Population Mitotic Cells (%)) = 72

response.value for CNc1oc(-c2cccc3ccccc23)nc1C#N (field: Population Mitotic Cells (%)) = 61

response.value for CCn1c(-c2nonc2N)nc2cnc(Oc3cccc(NC(=O)c4ccc(OCCN5CCOCC5)cc4)c3)cc21 [GSK-269962A] (field: Population Mitotic Cells (%)) = 43

response.value for COc1cc2c(Nc3ccc(NC(=O)c4ccccc4)cc3)ncnc2cc1OCCCN1CCOCC1 (field: Population Mitotic Cells (%)) = 70

response.value for N#Cc1cnc(Nc2cc(NC[C@H]3CNCCO3)c(C(F)(F)F)cn2)cn1 (field: Population Mitotic Cells (%)) = 90

###

- Test system: U2OS
- ASSAY PROCEDURE: Multiplex assay against U2OS
- Assay type: toxicity, cell-based
- CONDITION LABEL: human, 12 h, 1 µM, compound concentration 1 uM, replicate 2
Parameter threshold = 20%. Response is 1 when Population Tubulin-Different-Phenotype (%) meets or exceeds it, else -1.

# example entries with known answers
# MOLECULE, CLASS LABEL
measured = [
    ("Cc1cn(-c2cc(NC(=O)c3ccc4c(c3)CN(c3cncnc3)C[C@@H]4C)cc(C(F)(F)F)c2)cn1", -1),
    ("Cl.Cl.NC1(c2ccc(-c3nc4ccn5c(=O)[nH]nc5c4cc3-c3ccccc3)cc2)CCC1", -1),
    ("CC(=O)c1cc(-c2cc(C(=O)NC3CC3)ccc2C)c2ncccn12", -1),
]

Is Population Tubulin-Different-Phenotype (%) for Cc1cc2c(cc1N1C(=O)c3cccc4c(CCCO)ccc(c34)C1=O)n(C)c(=O)n2C at or above 20%?
1

Is Population Tubulin-Different-Phenotype (%) for COc1cc2c(NC3CCN(C(C)C)CC3)nc(N3CCC(F)(F)CC3)nc2cc1OCCCN1CCCC1 at or above 20%?
-1

Is Population Tubulin-Different-Phenotype (%) for CCC(=O)O[C@]1(C(=O)SCF)[C@H](C)C[C@H]2[C@@H]3C[C@H](F)C4=CC(=O)C=C[C@]4(C)[C@@]3(F)[C@@H](O)C[C@@]21C [FLUTICASONE PROPIONATE] at or above 20%?
-1

Is Population Tubulin-Different-Phenotype (%) for COc1cc2c(Nc3ccc(NC(=O)c4ccccc4)cc3)ncnc2cc1OCCCN1CCOCC1 at or above 20%?
1
